Experiment: physchem
Conditions: 25 °C, water

>  <molecule>
c1cc2c(cc1[C@H]1OC[C@H]3[C@@H]1CO[C@@H]3c1ccc3c(c1)OCO3)OCO2 [Sesamin, sesamin]

>  <solubility [µg/mL]>
0.14

$$$$
